The measured values listed here are drawn from ChEMBL document CHEMBL3862018.

# Tested on: Candida albicans
# Test Name: Antifungal activity against Candida albicans ATCC 14503 after 24 hrs by microbroth dilution method
# Format: functional
# Experimental Context: ATCC 14503, 24 h
Metric Name: MIC90 (µM)

1) C[C@@H]1[C@H](O)[C@@H](C)/C=C/C=C/C=C/C=C/C=C/C=C/C=C/[C@H](O[C@@H]2O[C@H](C)[C@@H](O)[C@H](N)[C@@H]2O)C[C@@H]2O[C@](O)(C[C@@H](O)C[C@@H](O)[C@H](O)CC[C@@H](O)C[C@@H](O)CC(=O)O[C@H]1C)C[C@H](O)[C@H]2C(=O)O = 0.3

I. CC(C)=CCC[C@](C)(N)[C@H]1CC=C(C)CC1
II. CC(C)CCC[C@](C)(N)C1CCC(C)CC1 (some centres not stated)
III. CC(C)CCC[C@@](C)(C1CCC(C)CC1)N(C)C (some centres not stated)
[ask] Reorder the items by MIC90, least to greatest. Put the labels in the order asked and list them.
[reply] II, I, III

---

# Tested on: Candida albicans
# Test Name: Antifungal activity against Candida albicans ATCC 14503 after 24 hrs by microbroth dilution method
# Type: functional
# Experimental Context: ATCC 14503, 24 h
Documented MIC90 across a set of molecules

Examples with their reported MIC90 follow.
1. CC(C)=CCC[C@@](C)([C@H]1CC=C(C)CC1)N(C)Cc1cccc2ccccc12 = > 250 µM
2. CC(C)=CCC[C@](C)(NCc1cccc2ccccc12)[C@H]1CC=C(C)CC1 = > 250 µM

Would you kindly look at the next entry?
[ask] Name the recorded MIC90 of the molecule listed here: CN(C/C=C/C#CC(C)(C)C)Cc1cccc2ccccc12
[reply] > 250 µM
